meta.source: patent US20110112308A1

test: Solid-state stability
Type: physicochemical
condition context: Light study, 1200 kLux (300-800 nm)
parameter: % DP (total degradation products) (% area)

(a) Cc1[nH]c2ccccc2c1CCNCc1ccc(/C=C/C(=O)NO)cc1.Cl [HCl]
(b) CS(=O)(=O)O.Cc1[nH]c2ccccc2c1CCNCc1ccc(/C=C/C(=O)NO)cc1 [Mesylate]
Prompt: Compare the recorded % DP (total degradation products) of a and b ; state which is larger. Give the label of your selection.
Completion: a

(1) CC(O)C(=O)O.Cc1[nH]c2ccccc2c1CCNCc1ccc(/C=C/C(=O)NO)cc1.O (racemic) [Monohydrate DL-lactate salt]
(2) Cc1[nH]c2ccccc2c1CCNCc1ccc(/C=C/C(=O)NO)cc1.O=C(O)/C=C\C(=O)O [Maleate]
Prompt: Compare the recorded % DP (total degradation products) of 1 and 2 ; state which is larger. Give the label of your selection.
Completion: 2

---

test: Solution stability (HPLC)
Assay type: physicochemical
condition context: 2 mg/mL in water
parameter: pH of initial mixture

Take a look at these entries with their results.
compound	pH of initial mixture
CS(=O)(=O)O.Cc1[nH]c2ccccc2c1CCNCc1ccc(/C=C/C(=O)NO)cc1 [Mesylate]	6.55
Cc1[nH]c2ccccc2c1CCNCc1ccc(/C=C/C(=O)NO)cc1.Cl [HCl]	5.93
Cc1[nH]c2ccccc2c1CCNCc1ccc(/C=C/C(=O)NO)cc1.O=C(O)/C=C\C(=O)O [Maleate]	5.40

(a) CC(O)C(=O)O.Cc1[nH]c2ccccc2c1CCNCc1ccc(/C=C/C(=O)NO)cc1.O (racemic) [Monohydrate DL-lactate salt]
(b) Cc1[nH]c2ccccc2c1CCNCc1ccc(/C=C/C(=O)NO)cc1 [Free base]
Prompt: Compare the recorded pH of initial mixture of a and b ; state which is larger. Give the label of your selection.
Completion: b
(b: 9.59, a: 6.30)

---

test: Stability of mixtures with excipients
Assay type: physicochemical
condition context: Mixture 7: 50% Cetyl Alcohol + 49% HPCLH21 + 1% Magnesium Stearate; 50° C./75% r.h., 2 weeks
parameter: % DS (drug substance) (% area)

molecule	parameter	readout unit	measured value
Cc1[nH]c2ccccc2c1CCNCc1ccc(/C=C/C(=O)NO)cc1.O=C(O)/C=C\C(=O)O [Maleate]	% DS (drug substance)	% area	99.7
CS(=O)(=O)O.Cc1[nH]c2ccccc2c1CCNCc1ccc(/C=C/C(=O)NO)cc1 [Mesylate]	% DS (drug substance)	% area	99.4
Cc1[nH]c2ccccc2c1CCNCc1ccc(/C=C/C(=O)NO)cc1.Cl [HCl]	% DS (drug substance)	% area	99.5
CC(O)C(=O)O.Cc1[nH]c2ccccc2c1CCNCc1ccc(/C=C/C(=O)NO)cc1.O (racemic) [Monohydrate DL-lactate salt]	% DS (drug substance)	% area	99.5
Cc1[nH]c2ccccc2c1CCNCc1ccc(/C=C/C(=O)NO)cc1 [Free base]	% DS (drug substance)	% area	99.5

---

test: Solution stability (HPLC)
Assay type: physicochemical
condition context: 5% solution, 1 day at RT (diluted 1:100 in pH 6.8 buffer)
parameter: % DP (total degradation products) (% area)

compound	% DP (total degradation products), % area
Cc1[nH]c2ccccc2c1CCNCc1ccc(/C=C/C(=O)NO)cc1.O=C(O)/C=C\C(=O)O [Maleate]	0.67

(I) CS(=O)(=O)O.Cc1[nH]c2ccccc2c1CCNCc1ccc(/C=C/C(=O)NO)cc1 [Mesylate]
(II) Cc1[nH]c2ccccc2c1CCNCc1ccc(/C=C/C(=O)NO)cc1.Cl [HCl]
(III) CC(O)C(=O)O.Cc1[nH]c2ccccc2c1CCNCc1ccc(/C=C/C(=O)NO)cc1.O (racemic) [Monohydrate DL-lactate salt]
Prompt: Reorder: % DP (total degradation products), max to min. Ranked list of labels, please, in the requested order.
Completion: II, I, III
